Here's a roundup of Kd values tested on Retinoic acid receptor RXR-alpha (Homo sapiens, UniProt P19793), taken from various published works.
MEASURED_TARGET: Retinoic acid receptor RXR-alpha (Homo sapiens, UniProt P19793)
Sequence (P19793 whole entry): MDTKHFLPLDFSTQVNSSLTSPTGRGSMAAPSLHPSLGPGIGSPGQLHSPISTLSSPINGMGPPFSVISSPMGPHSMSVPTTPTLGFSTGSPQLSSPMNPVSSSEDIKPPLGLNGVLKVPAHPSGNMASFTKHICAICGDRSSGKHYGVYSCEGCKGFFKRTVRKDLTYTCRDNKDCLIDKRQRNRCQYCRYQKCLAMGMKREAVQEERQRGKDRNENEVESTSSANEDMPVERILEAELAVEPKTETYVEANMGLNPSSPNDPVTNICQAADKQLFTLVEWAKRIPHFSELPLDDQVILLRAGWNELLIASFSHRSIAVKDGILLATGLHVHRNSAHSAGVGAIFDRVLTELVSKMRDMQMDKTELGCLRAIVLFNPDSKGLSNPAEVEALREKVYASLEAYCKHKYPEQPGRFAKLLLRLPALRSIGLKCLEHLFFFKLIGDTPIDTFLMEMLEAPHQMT
With a cut-off of 200 nM, any Kd strictly below it is called 1 (yes); any Kd meeting it or above is called 0 (no).

See these solved cases before continuing.
COMPOUND	GROUP
CC(=CC(=O)O)/C=C/C1CC1(C)c1cc2c(cc1C)C(C)(C)CCC2(C)C (stereo not given)	0 (no)
CC(C)=C(c1ccc(C(=O)O)cc1)c1cc2c(cc1C)C(C)(C)CCC2(C)C	1 (yes)
C=C(/C=C/C=C/C(=O)O)c1cc(C(C)(C)C)cc2c1CCC2(C)C	0 (no)
CCCCCOc1cc2c(cc1-n1nnc3cc(C(=O)O)ccc31)C(C)(C)CCC2(C)C	0 (no)
Cc1cc2c(cc1C1(c3ccc(C(=O)O)cc3)CC1)C(C)(C)CCC2(C)C	1 (yes)
Cc1cc2c(cc1C(=O)c1cccc(C(=O)O)c1)C(C)(C)CCC2(C)C	0 (no)
CCCCCOc1cc2c(cc1-n1c(C(F)(F)F)nc3cc(C(=O)O)ccc31)C(C)(C)CCC2(C)C	0 (no)
N[C@@H](Cc1cc(I)c(Oc2cc(I)c(O)c(I)c2)c(I)c1)C(=O)O	0 (no)

# next compound below
Exam item: I'd appreciate it if you could check whether C=C(c1ccc(C(=O)O)cc1)c1cc2c(cc1F)C(C)(C)CCC2(C)C has Kd smaller than 200 nM.
Marked response: 1 (yes)

* * *

MEASURED_TARGET: UniProt:P19793
Sequence (P19793 whole entry): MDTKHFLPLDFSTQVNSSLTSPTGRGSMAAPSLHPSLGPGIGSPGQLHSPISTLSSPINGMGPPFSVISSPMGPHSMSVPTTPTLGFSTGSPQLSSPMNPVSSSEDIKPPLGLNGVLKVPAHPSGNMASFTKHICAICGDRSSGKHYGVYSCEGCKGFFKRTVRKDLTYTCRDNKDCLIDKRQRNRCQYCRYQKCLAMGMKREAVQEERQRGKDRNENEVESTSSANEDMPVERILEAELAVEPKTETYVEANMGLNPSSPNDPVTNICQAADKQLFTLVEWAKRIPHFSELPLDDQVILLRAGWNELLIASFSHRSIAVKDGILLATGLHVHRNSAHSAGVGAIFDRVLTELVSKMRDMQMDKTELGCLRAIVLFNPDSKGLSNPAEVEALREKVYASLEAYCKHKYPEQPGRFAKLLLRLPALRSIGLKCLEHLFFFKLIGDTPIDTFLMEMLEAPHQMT
Here's a roundup of log10 Kd values tested on UniProt:P19793, taken from various published works.
Form field - Quantity: Kd; Unit: µM; Scale: log10

Exam item: State the recorded log10 Kd for this entry: CC(/C=C/C1CC1(C)c1cc2c(cc1C)C(C)(C)CCC2(C)C)=C\C(=O)O (configuration not stated)
Marked response: -1.15

Exam item: State the recorded log10 Kd for this entry: C=C(c1ccc(C(=O)O)cc1)c1cc2c(cc1C(C)C)C(C)(C)CCC2(C)C
Marked response: -1.26

Exam item: State the recorded log10 Kd for this entry: CC1(C)CCC(C)(C)c2cc(C(=O)c3ccc(C(=O)O)cc3)c(Cl)cc21
Marked response: -0.89

Exam item: State the recorded log10 Kd for this entry: CCC1=C(C(C)C)/C(=C/C(C)=C\C=C\C(C)=C\C(=O)O)CCC1
Marked response: -1.80

Exam item: State the recorded log10 Kd for this entry: CC1(C)CCC(C)(C)c2cc(C(=O)c3ccc(C(=O)O)cc3)c(Br)cc21
Marked response: -0.98

Exam item: State the recorded log10 Kd for this entry: C/C(=C\c1ccc(C(=O)O)cc1)c1cc2c(cc1C)C(C)(C)CCC2(C)C
Marked response: -1.49

Exam item: State the recorded log10 Kd for this entry: CC(/C=C/CC1(c2cc(C(C)(C)C)cc(C(C)(C)C)c2)CC1)=C\C(=O)O
Marked response: -2.52

Exam item: State the recorded log10 Kd for this entry: CC(/C=C/CC1(c2cc3c(cc2C)C(C)(C)CCC3(C)C)CC1)=C\C(=O)O
Marked response: -1.80

* * *

Here's a roundup of Kd values tested on UniProt P19793, taken from various published works.
MEASURED_TARGET: UniProt P19793
Sequence (P19793 whole entry): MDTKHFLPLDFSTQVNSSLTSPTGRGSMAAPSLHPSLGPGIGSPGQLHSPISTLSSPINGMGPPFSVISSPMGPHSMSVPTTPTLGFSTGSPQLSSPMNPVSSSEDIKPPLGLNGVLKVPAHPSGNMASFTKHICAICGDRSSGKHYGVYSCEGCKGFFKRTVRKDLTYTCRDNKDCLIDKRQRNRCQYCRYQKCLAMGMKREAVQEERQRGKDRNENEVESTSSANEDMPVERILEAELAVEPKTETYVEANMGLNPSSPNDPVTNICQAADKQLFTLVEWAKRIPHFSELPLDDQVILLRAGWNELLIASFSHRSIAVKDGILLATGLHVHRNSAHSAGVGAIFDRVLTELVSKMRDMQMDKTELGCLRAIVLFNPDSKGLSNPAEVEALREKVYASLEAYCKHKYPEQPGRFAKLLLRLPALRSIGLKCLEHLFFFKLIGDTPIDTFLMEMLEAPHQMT

QUERY_SMILES	MEASURED_TARGET	Kd
CCC1=C(C(C)C)/C(=C/C(C)=C/C=C/C(C)=C/C(=O)O)CCC1	UniProt P19793	> 200 nM
COc1cc2c(cc1C(=O)c1ccc(C(=O)O)cc1)C(C)(C)CCC2(C)C	UniProt P19793	> 1000 nM
Cc1cc2c(cc1Cc1ccc(C(=O)O)cc1)C(C)(C)CCC2(C)C	UniProt P19793	> 1000 nM

Exam item: API: value(readout= Kd, system= UniProt P19793, query= CC1=C(C)/C(=C/C(C)=C/C=C/C(C)=C/C(=O)O)CCC1 )
Marked response: > 200 nM
